Test: Hsp70 promoter-driven reporter induction – cell-based, HeLa, Hsp70 promoter luciferase, luminescence, 10 µM, primary screen (AID 1203)
Details: at 10 µM, scaled: vehicle 0, proteasome-inhibitor control 100%
Out of some 200,000 compounds screened, about 80 (0.04%) were called active.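 Rule for the calls: active = activation above the mean across all tested compounds plus 3 SD, cutoff set per campaign (cut at about 5.5% in these data); inactive = the rest.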 The entries come from a sample that favours actives as a whole.
// one of active, inactive, no free text

Hi, do you know how "CC(C)C(=O)Nc1c(O)c2ccccc2[nH]c1=O" came out in this test?
inactive

Hi, do you know how O=C(Nc1ccccc1Cl)/C(Cl)=C(\Cl)S(=O)c1ccccc1 (stereo not given) came out in this test?
active

Hi, do you know how COc1ccc(OCC(O)CNC(=O)Nc2ccc(Cl)cc2)cc1 (stereo not given) came out in this test?
inactive

Hi, do you know how COc1ccc(-c2nc(N)sc2C2(O)C(=O)Nc3c(Br)cc(F)cc32)cc1OC (stereo not given) came out in this test?
inactive

Hi, do you know how "CCOC(=O)NC(=O)CSc1nnc(SCCC(=O)O)s1" came out in this test?
inactive

Hi, do you know how CC(=O)c1ccc(NC(=S)N(Cc2ccccc2)C(C)C2CC2)cc1 (stereo not given) came out in this test?
inactive

Hi, do you know how "CCN(CC)S(=O)(=O)c1ccc(NC(=O)c2cccnc2Cl)c(NC(=O)c2cccnc2Cl)c1" came out in this test?
inactive

Hi, do you know how "O=C(COC(=O)CCc1ccc(S(=O)(=O)N2CCOCC2)cc1)Nc1cccc(Cl)c1" came out in this test?
inactive

Hi, do you know how CC(NC(=O)CC1SC(N)=NC1=O)c1ccccc1 (stereo not given) came out in this test?
inactive

Hi, do you know how "CN(C)C(=O)N1CCNCC1" came out in this test?
inactive

Hi, do you know how "Cc1ccc(NC(=O)OCc2cncs2)cc1" came out in this test?
inactive

Hi, do you know how "CC(=O)Nc1ccc(OCC(=O)NCc2ccc(C)cc2)cc1" came out in this test?
inactive

Hi, do you know how "COc1cccc(-c2nn(-c3ccccc3)cc2/C=C(\C#N)C(=O)NCCCn2ccnc2)c1" came out in this test?
inactive

Hi, do you know how "Cc1ccc(-c2ccc(/C=N/NC(=O)CN3CCOCC3)o2)cc1[N+](=O)[O-]" came out in this test?
inactive

Hi, do you know how "CC(C)CN(C(=O)CN1CCN(S(=O)(=O)c2ccccc2)CC1)c1c(N)n(CC(C)C)c(=O)[nH]c1=O" came out in this test?
inactive

Hi, do you know how "CCOC(=O)c1c(CN(C)C)n(-c2ccccc2)c2cc(Br)c(O)cc12" came out in this test?
inactive

Hi, do you know how "COc1ccc(C(=O)CSc2nnnn2C)c(OC)c1" came out in this test?
inactive

Hi, do you know how Cc1ccccc1N1C(=O)C(Oc2ccc(Cl)cc2)C1CNCC1CCCO1 (stereo not given) came out in this test?
inactive

Hi, do you know how "COc1ccc(NC(=S)NCCNC(C)=O)cc1" came out in this test?
inactive

Hi, do you know how "COc1ccc(C)cc1S(=O)(=O)N(CC(=O)Nc1cccc([N+](=O)[O-])c1)c1ccc(C)cc1" came out in this test?
inactive

Hi, do you know how "Cc1cccc(NC(=S)NC(=O)c2ccc(Br)o2)c1" came out in this test?
inactive

Hi, do you know how COc1ccccc1C(c1nnnn1CC1CCCO1)N1CCN(c2ccccc2)CC1 (stereo not given) came out in this test?
inactive

Hi, do you know how "O=S(=O)(c1ccc(F)cc1)n1ccc(-c2cnc(-c3ccccc3)s2)n1" came out in this test?
inactive

Hi, do you know how "Cc1ccc(C(=O)/C=C/c2c(C)nn(-c3ccccc3)c2Cl)cc1" came out in this test?
inactive

Hi, do you know how "COc1ccc(CCNC(=O)CSc2nnc3ccc(-c4ccncc4)nn23)cc1" came out in this test?
inactive

Hi, do you know how CC(Oc1ccccc1)C(=O)NN1Cc2ccccc2C1=N (stereo not given) came out in this test?
inactive

Hi, do you know how "CCN(CC)C(=O)C(=O)Nc1cccc(Br)c1" came out in this test?
inactive

Hi, do you know how COc1ccc(NC(=O)/C(Cl)=C(/Cl)S(=O)Cc2ccc(C)cc2)cn1 (stereo not given) came out in this test?
active

Hi, do you know how "O=C(CC(=O)N/N=C\c1ccc(F)cc1)NCCc1ccccc1" came out in this test?
inactive

Hi, do you know how "CCN(CC)Cc1nc2sc(C)c(C)c2c(=O)[nH]1" came out in this test?
inactive

Hi, do you know how "CC(=O)Nc1ccc(C(=O)OCC(=O)Nc2ccc([N+](=O)[O-])cc2C(F)(F)F)cc1" came out in this test?
inactive

Hi, do you know how CC(OC(=O)c1ccccc1N1C(=O)C2C3CCC(C3)C2C1=O)C(=O)c1ccccc1 (stereo not given) came out in this test?
inactive

Hi, do you know how "COc1ccc(/C=N/N=C/c2c[nH]c(=O)c(C#N)c2Nc2ccccc2)cc1" came out in this test?
inactive

Hi, do you know how "CCN(CC)CCN(C(=O)c1cccc([N+](=O)[O-])c1)c1nc2ccc(OC)cc2s1" came out in this test?
inactive

Hi, do you know how "CSc1ccc(/C=C/C(=O)NC23CC4CC(CC(C4)C2)C3)cc1" came out in this test?
inactive

Hi, do you know how "CNC(=S)N1CCN(c2ccccn2)CC1" came out in this test?
inactive

Hi, do you know how CN(C)c1ccc(C(CNC(=O)c2ccc(F)cc2)c2c[nH]c3ccccc23)cc1 (stereo not given) came out in this test?
inactive

Hi, do you know how "O=C(CN1CCCCC1)Nc1ccccc1Cl" came out in this test?
inactive

Hi, do you know how "N#Cc1c(-c2ccc(F)cc2)nc(-c2ccccc2)[nH]c1=O" came out in this test?
inactive

Hi, do you know how COc1ccc(CS(=O)/C(Cl)=C(/Cl)C(=O)Nc2ccc(OC)nc2)cc1 (stereo not given) came out in this test?
active

Hi, do you know how "O=C(Nc1nc(-c2cccnc2)cs1)c1ccccc1F" came out in this test?
inactive

Hi, do you know how CCOC(=O)NN1C(=O)c2ccccc2NC1c1cccc(O)c1 (stereo not given) came out in this test?
inactive

Hi, do you know how "CCOC(=O)C/C(C)=N\Nc1ccc([N+](=O)[O-])cc1[N+](=O)[O-]" came out in this test?
inactive

Hi, do you know how CSCCC(=O)N1CCCC(CNC(=O)c2ccccc2Cl)C1 (stereo not given) came out in this test?
inactive

Hi, do you know how "O=C(Nc1ccccc1Cl)c1ccc2nsnc2c1" came out in this test?
inactive
